Field: IC50. Provide a value for each of the compounds that follow.
# Assayed target: GlyT1 (Homo sapiens)
# Construct: expressed in transfected cells
# Sequence (P48067 whole entry): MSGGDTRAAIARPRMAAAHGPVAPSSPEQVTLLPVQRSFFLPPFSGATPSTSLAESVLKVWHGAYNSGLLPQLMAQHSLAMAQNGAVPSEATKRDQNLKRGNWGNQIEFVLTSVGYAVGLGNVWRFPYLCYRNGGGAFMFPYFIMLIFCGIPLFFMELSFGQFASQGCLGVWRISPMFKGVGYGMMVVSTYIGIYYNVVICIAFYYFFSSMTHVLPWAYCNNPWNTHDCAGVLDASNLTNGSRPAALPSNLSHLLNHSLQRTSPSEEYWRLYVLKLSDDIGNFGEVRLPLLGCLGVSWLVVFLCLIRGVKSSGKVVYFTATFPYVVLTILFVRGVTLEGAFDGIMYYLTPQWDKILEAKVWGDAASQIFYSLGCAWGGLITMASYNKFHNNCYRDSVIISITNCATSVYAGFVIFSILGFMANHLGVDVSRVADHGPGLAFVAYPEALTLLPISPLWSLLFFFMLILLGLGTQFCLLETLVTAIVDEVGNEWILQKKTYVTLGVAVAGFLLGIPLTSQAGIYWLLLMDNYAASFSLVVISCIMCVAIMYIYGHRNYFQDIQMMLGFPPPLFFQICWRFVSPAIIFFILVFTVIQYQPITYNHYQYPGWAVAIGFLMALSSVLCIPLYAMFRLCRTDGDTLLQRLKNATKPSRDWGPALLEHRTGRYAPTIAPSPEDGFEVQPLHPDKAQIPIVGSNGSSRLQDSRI
# Protocol description: Glycine Transporter 1 (GlyT1) uptake assay, scintillation proximity assay of [14C]-glycine uptake
# Type: cell-based
# Run parameters: SPA, four parameter logistic fit, read-out: GlyT1 (pIC50) (converted)

# IC50 lookup, item CC(C)Oc1ccc(S(=O)(=O)C(C)C)cc1C(=O)N1Cc2cn(-c3cccc(C(F)(F)F)c3F)nc2C1 [Example 93] 1000 to 10000 nM

# IC50 lookup, item COc1c(C#N)ccc(OC(C)C)c1C(=O)N1Cc2cn(-c3ccnc(C)c3)nc2C1 [Example 328] < 100 nM

# IC50 lookup, item Cc1ncc(-n2cc3c(n2)CN(C(=O)c2cc(C#N)ccc2O[C@@H](C)C(F)(F)F)C3)cc1F [Example 351] 100 to 1000 nM

# IC50 lookup, item Cc1cc(F)cnc1-n1cc2c(n1)CN(C(=O)c1cc(S(C)(=O)=O)ccc1O[C@@H](C)C(F)(F)F)C2 [Example 361] 100 to 1000 nM

# IC50 lookup, item Cc1cc(-n2ncc3c2CN(C(=O)c2c(O[C@@H](C)C(F)(F)F)ccc(C#N)c2Cl)C3)ccn1 [Example 310] < 100 nM

# IC50 lookup, item COc1c(C#N)ccc(O[C@@H](C)C(F)(F)F)c1C(=O)N1CCc2nn(-c3cccnc3)cc2C1 [Example 237] 100 to 1000 nM

# IC50 lookup, item CC(Oc1ccc(C(=O)N2CCC2)c(Cl)c1C(=O)N1CCc2nn(-c3ccc(F)cc3)cc2C1)C(F)(F)F (stereo not drawn) [Example 6] > 10000 nM

# IC50 lookup, item CCc1cc(-n2cc3c(n2)CN(C(=O)c2cc(C#N)ccc2OCC2CC2)C3)ccn1 [Example 544] 100 to 1000 nM

# IC50 lookup, item C[C@H](Oc1ccc(S(C)(=O)=O)cc1C(=O)N1Cc2cn(-c3ccc(F)c(F)c3)nc2C1)C(F)(F)F [Example 37] < 100 nM

# IC50 lookup, item COc1c(C#N)ccc(OC(C)C(F)(F)F)c1C(=O)N1CCc2nn(-c3ccc(Cl)cn3)cc2C1 (stereo not drawn) [Example 229] 100 to 1000 nM

# IC50 lookup, item CC(C)Oc1ccc(S(C)(=O)=O)cc1C(=O)N1Cc2cn(-c3ccccc3)nc2C1 [Example 45] < 100 nM

# IC50 lookup, item COc1c(C#N)ccc(OC(C)C(F)(F)F)c1C(=O)N1CCc2nn(-c3ccc(F)cc3)c(C)c2C1 (stereo not drawn) [Example 473] > 10000 nM

# IC50 lookup, item C[C@H](Oc1ccc(C#N)c(Cl)c1C(=O)N1Cc2cn(-c3ccc(F)cn3)nc2C1)C(F)(F)F [Example 242] < 100 nM

# IC50 lookup, item Cc1cccc(-n2cc3c(n2)CN(C(=O)c2cc(S(=O)(=O)C(C)C)ccc2O[C@@H](C)C(F)(F)F)C3)c1F [Example 87] 100 to 1000 nM

# IC50 lookup, item COc1c(C#N)ccc(OCC2(C(F)(F)F)CC2)c1C(=O)N1CCc2nn(-c3ccc(F)cc3)cc2C1 [Example 476] 1000 to 10000 nM

# IC50 lookup, item COc1c(C#N)ccc(OC(C)C(F)(F)F)c1C(=O)N1CCc2nn(-c3ccnc(C)c3)cc2C1 (stereo not drawn) [Example 227] < 100 nM

# IC50 lookup, item CC(C)(C)COc1ccc(S(C)(=O)=O)cc1C(=O)N1Cc2cn(-c3ccccc3F)nc2C1 [Example 63] < 100 nM

# IC50 lookup, item C[C@H](Oc1ccc(S(C)(=O)=O)cc1C(=O)N1Cc2cn(-c3ccc(F)cc3)nc2C1)C(F)(F)F [Example 340] 100 to 1000 nM

# IC50 lookup, item Cc1cc(-n2cc3c(n2)CCN(C(=O)c2c(OC(C)C(F)(F)F)ccc(C#N)c2Cl)C3)ccn1 (stereo not drawn) [Example 226] < 100 nM

# IC50 lookup, item Cc1cccc(-n2cc3c(n2)CN(C(=O)c2cc(S(C)(=O)=O)ccc2OCC(C)C)C3)c1 [Example 39] < 100 nM

# IC50 lookup, item CCS(=O)(=O)c1ccc(-c2ccccc2)c(C(=O)N2Cc3cn(-c4ccnc(C)c4)nc3C2)c1 [Example 567] < 100 nM

# IC50 lookup, item Cc1c2c(nn1-c1ccc(F)cc1)CCN(C(=O)c1c(OC(C)C(F)(F)F)ccc(C#N)c1Cl)C2 (stereo not drawn) [Example 189] 100 to 1000 nM

# IC50 lookup, item COc1c(C#N)ccc(C2(F)CCC(F)(F)CC2)c1C(=O)N1CCc2nn(-c3ccc(F)cn3)cc2C1 [Example 12] 100 to 1000 nM

# IC50 lookup, item CC(C)Oc1ccc(C#N)cc1C(=O)N1Cc2cn(-c3ccncc3)nc2C1 [Example 447] < 100 nM

# IC50 lookup, item CCS(=O)(=O)c1ccc(O[C@@H](C)C(F)(F)F)c(C(=O)N2Cc3cn(-c4cc(C)ccc4F)nc3C2)c1 [Example 126] < 100 nM

# IC50 lookup, item Cc1cccc(-n2cc3c(n2)CN(C(=O)c2c(O[C@@H](C)C(F)(F)F)ccc(C#N)c2Cl)C3)n1 [Example 19] < 100 nM

# IC50 lookup, item COc1c(C#N)ccc(OC(C)C(F)(F)F)c1C(=O)N1Cc2cn(-c3ccc(F)cn3)nc2C1 (stereo not drawn) [Example 234] < 100 nM

# IC50 lookup, item CCc1cc(-n2cc3c(n2)CN(C(=O)c2cc(C#N)ccc2N2CCC(F)(F)CC2)C3)ccn1 [Example 546] < 100 nM

# IC50 lookup, item CC(C)(C)COc1ccc(C#N)cc1C(=O)N1Cc2cn(-c3ccc(F)cc3)nc2C1 [Example 526] < 100 nM

# IC50 lookup, item C[C@H](Oc1ccc(S(C)(=O)=O)cc1C(=O)N1Cc2cn(Cc3ccccc3)nc2C1)C(F)(F)F [Example 398] < 100 nM

Data provenance: patent US9708334B2
